target: Human 11β-HSD1 (Homo sapiens); construct: expressed in transfected cells; host or cells: CHOP cells (transient, FuGENE); assay: 11β-HSD1 assay in intact CHOP cells transfected with human HSD11B1; assay type: cell-based; conditions: CHOP cells transfected with human HSD11B1; read-out: Human 11β-HSD1 IC50 (nM) in CHOP cells
Sequence (P28845 whole entry): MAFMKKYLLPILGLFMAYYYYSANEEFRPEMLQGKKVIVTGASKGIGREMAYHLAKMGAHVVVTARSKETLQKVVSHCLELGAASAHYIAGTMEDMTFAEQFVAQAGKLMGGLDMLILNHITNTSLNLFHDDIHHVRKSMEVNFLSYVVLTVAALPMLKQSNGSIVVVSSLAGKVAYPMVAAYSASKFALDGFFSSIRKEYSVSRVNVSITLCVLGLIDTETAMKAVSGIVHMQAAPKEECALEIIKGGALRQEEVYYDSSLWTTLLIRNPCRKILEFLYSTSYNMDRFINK
# criterion met = IC50 below 2000 nM (exclusive); criterion not met = IC50 at/above 2000 nM

[[record]]
compound = "O=C1/C(=C/c2cccs2)CC/C1=C\\c1cccs1 [compound 11]"
measurement_target = "Human 11β-HSD1 (Homo sapiens)"
class_name = "criterion met"

[[record]]
compound = "Cc1ccsc1/C=C1\\CC/C(=C\\c2sccc2C)C1=O [compound 9]"
measurement_target = "Human 11β-HSD1 (Homo sapiens)"
class_name = "criterion not met"

[[record]]
compound = "O=C(/C=C/c1cccs1)/C=C/c1cccs1 [compound 6]"
measurement_target = "Human 11β-HSD1 (Homo sapiens)"
class_name = "criterion met"

[[record]]
compound = "Cn1cccc1/C=C1\\CC/C(=C\\c2cccn2C)C1=O [compound 10]"
measurement_target = "Human 11β-HSD1 (Homo sapiens)"
class_name = "criterion not met"

[[record]]
compound = "O=C1/C(=C/c2cccs2)CCC/C1=C\\c1cccs1 [compound 16]"
measurement_target = "Human 11β-HSD1 (Homo sapiens)"
class_name = "criterion not met"

[[record]]
compound = "Cc1ccc(/C=C2\\CCC/C(=C\\c3ccc(C)s3)C2=O)s1 [compound 13]"
measurement_target = "Human 11β-HSD1 (Homo sapiens)"
class_name = "criterion not met"

[[record]]
compound = "Cc1ccsc1/C=C/C(=O)/C=C/c1sccc1C [compound 4]"
measurement_target = "Human 11β-HSD1 (Homo sapiens)"
class_name = "criterion met"

[[record]]
compound = "O=C1/C(=C/c2ccc(Br)o2)CC/C1=C\\c1ccc(Br)o1 [compound 7]"
measurement_target = "Human 11β-HSD1 (Homo sapiens)"
class_name = "criterion met"

[[record]]
compound = "COc1cc(/C=C/C(=O)CC(=O)/C=C/c2ccc(O)c(OC)c2)ccc1O [1 (Curcumin), Curcumin]"
measurement_target = "Human 11β-HSD1 (Homo sapiens)"
class_name = "criterion not met"

[[record]]
compound = "O=C(/C=C/c1ccc(Br)o1)/C=C/c1ccc(Br)o1 [compound 2]"
measurement_target = "Human 11β-HSD1 (Homo sapiens)"
class_name = "criterion met"

[[record]]
compound = "Cc1ccc(/C=C2\\CC/C(=C\\c3ccc(C)s3)C2=O)s1 [compound 8]"
measurement_target = "Human 11β-HSD1 (Homo sapiens)"
class_name = "criterion met"

[[record]]
compound = "O=C1/C(=C/c2ccc(Br)o2)CCC/C1=C\\c1ccc(Br)o1 [compound 12]"
measurement_target = "Human 11β-HSD1 (Homo sapiens)"
class_name = "criterion not met"

[[record]]
compound = "Cn1cccc1/C=C1\\CCC/C(=C\\c2cccn2C)C1=O [compound 15]"
measurement_target = "Human 11β-HSD1 (Homo sapiens)"
class_name = "criterion not met"

